# target-under-test: Transcriptional activator protein LasR (Pseudomonas aeruginosa (strain ATCC 15692 / PAO1 / 1C / PRS 101 / LMG12228))
# protocol-text: Agonist activity at Pseudomonas aeruginosa PAO1 MW1 (pUM15) LasR assessed as activation of quorum sensing at 10 uM relative to N-(3-oxo)-dodecanoyl HL
# Type: functional
result-type: Activity (%)

[
  {
    "input-smiles": "COc1ccc(CC(=O)NC2CCCC2)cc1",
    "result-value": 0
  },
  {
    "input-smiles": "CCCCCCCCCC(=O)CC(=O)NCc1ccc(F)cc1",
    "result-value": 0
  },
  {
    "input-smiles": "O=C(Cc1ccccc1)NC1CCCC1",
    "result-value": 0
  },
  {
    "input-smiles": "CCCCCCCCCC(=O)CC(=O)NCc1ccc(OC)cc1",
    "result-value": 1
  }
]

* * *

A collection of compounds and their measured inhibition
# target-under-test: UniProtKB P12746
# Sequence (P12746 whole entry): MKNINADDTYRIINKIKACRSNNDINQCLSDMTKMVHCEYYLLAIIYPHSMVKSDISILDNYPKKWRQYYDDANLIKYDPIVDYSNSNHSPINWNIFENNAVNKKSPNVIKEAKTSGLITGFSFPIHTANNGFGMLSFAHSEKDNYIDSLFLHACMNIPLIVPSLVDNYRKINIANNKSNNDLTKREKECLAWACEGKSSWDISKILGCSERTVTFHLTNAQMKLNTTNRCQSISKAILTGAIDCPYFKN
# protocol-text: Antagonist activity at Vibrio fischeri ESI 114 (delta-LuxI) LuxR assessed as inhibition of OHHL-induced quorum sensing activation at 10 uM relative to untreated control
# Format: functional

[
  {
    "input-smiles": "CCOC(=O)CNC(=O)Cc1ccc(Br)cc1",
    "inhibition [%]": 14
  },
  {
    "input-smiles": "O=C(Cc1ccc(-c2ccccc2)cc1)NC1CCCC1",
    "inhibition [%]": 17
  },
  {
    "input-smiles": "CCOC(=O)CNC(=O)CCc1ccc(Cl)cc1",
    "inhibition [%]": 14
  },
  {
    "input-smiles": "CCCCCCCCCC(=O)CC(=O)NC1CCCC1",
    "inhibition [%]": 89
  }
]

FYI, the data here is from ChEMBL document CHEMBL1811866.
